# system.under.test: Chromo domain-containing protein 1 (Saccharomyces cerevisiae (strain ATCC 204508 / S288c) (Baker's yeast))
# experiment.description: ScCHD-1 Enzyme Inhibition Assay; note: in the data most compounds retested in dose-response had high values
# Format: functional
# Design: scale not given: direction of the effect not stated beside the values
# condition.summary: 30 µM
readout.type: Percent Effect (%)
Quick reminder: number only, in %, skip the unit.

Lab book: Percent Effect of COc1cc(CNC(=O)NCc2c(C)cc(C)[nH]c2=O)ccc1C noted as -9.57

Reported Percent Effect for O=C(NCCc1ccccn1)NC1CCN(c2ncccn2)CC1 was -4.07

Percent Effect for O=C(CCn1ccccc1=O)Nc1ccc(F)c(Cl)c1 is -7.68

The reported value for CC(C)c1ccc(C(C)NC(=O)N2CCC(n3cncn3)CC2)cc1 (centres undefined) in terms of Percent Effect is -3.06

Reported Percent Effect ( CC(C)OCCN1CCN(C(=O)c2cccc(CC#N)c2)CC1 ) = -7.58

// Percent Effect lookup, compound = Cn1ncc2c(=O)[nH]c(CN(Cc3cccc(F)c3)C3CC3)nc21 , result: -7.35

In plain terms, COCCN1CCCC(O)(CN2CCN(c3ncccc3C)CC2)C1=O (centres undefined) has a documented Percent Effect of -5.83

Given item Cc1cnn(CCNCC(=O)NCc2ccccc2)c1 , the value recorded as its Percent Effect is 4.48

Kindly note the recorded Percent Effect for CCOCC1CN(S(C)(=O)=O)Cc2cnn(C)c21 (centres undefined) , which is -7.93

Entry O=C(Cc1ccc2c(c1)CCC2)NCCNc1ncccn1 — recorded Percent Effect = -10.6

Input O=C1NC(c2ccccc2)=N[C@@]12CC[C@@H]1CN(Cc3ccco3)C[C@@H]12 . Output Percent Effect: -2.32

Lab note: measured Percent Effect of CC(NC(=O)Cn1cccn1)c1cccnc1 (centres undefined) was -3.89

Value of measured Percent Effect for the entry O=C1COC2(CCN(Cc3ccccn3)CC2)CN1CC1CC1 : -1.35

Record Cc1nn(CC(=O)N2CCN(c3ccncc3)CC2)c(C)c1Cl , field Percent Effect: -7.63

---

# system.under.test: AMP-activated protein kinase, AMPK (Homo sapiens) (UniProt P54646+O43741+P54619+Q9UGJ0+Q9Y478+Q13131+Q9UGI9)
# experiment.description: AMP-dependent Kinase enzyme assay. An in vitro enzyme assay that detects ADP turnover that is directly proportional to AMPK activity. This uses naive AMPK that is activated during the assay with MK-8722
# Assay type: functional
# Set-up: scale not given: direction of the effect not stated beside the values
# condition.summary: 30 µM
readout.type: Percent Effect (%)
A number alone suffices; assume %.

Record Cc1cc(C)c(CNC(=O)NCC(c2ccccc2)N(C)C)c(=O)[nH]1 (stereo not given) . Reported Percent Effect: -5.47

Please fill in: Percent Effect reported for COC(=O)c1cccc(NC(=O)CCn2nc(-c3cccs3)oc2=O)c1 = 11.1

Data point: CC(C)c1n[nH]c(C2CN(C(=O)c3cccc4cn[nH]c34)CCO2)n1 (stereo not given) ; Percent Effect = 4.13

Input Clc1ccc2cccnc2c1CN1CCCC1Cn1cncn1 (stereo not given) . Output Percent Effect: -3.88

# Percent Effect of Cc1nn(C)cc1C(=O)N1C[C@H]2CC[C@@H]1CN(S(=O)(=O)N(C)C)C2 = -1.08

Per the records, this compound ( CNS(=O)(=O)Cc1ccc(CNc2cncc(-n3cccn3)n2)cc1 ) has Percent Effect equal to 3.34

Briefly, Percent Effect measured for CCN1CCN(C2CCN(Cc3nc(-c4ccoc4)no3)CC2)C1=O : 7.03

Record CCn1c(CN2CCCN(C(=O)OC)CC2)nc2c(F)cccc21 . Reported Percent Effect: -5.17

response.value for OCCOc1nc(-c2ccccc2Cl)no1 (field: Percent Effect) = -5.12

Record summary for CCn1cc(NC(=O)C2CCN(Cc3ccccc3C#N)CC2)cn1 : reported Percent Effect = 6.54

Measured Percent Effect, CN(C)c1ccc(C(=O)N2CCN(C(=O)N3CCCCC3)CC2)nn1 : 4.21

get_value(item= Cc1cc(CN(C)C2CCCN(c3cccnn3)C2)on1 (stereo not given) , readout=Percent Effect) returns -10.6

Reported Percent Effect ( CC(C)c1csc(C2CCCN(C(=O)c3ncccn3)C2)n1 (stereo not given) ) = 4.03

// field: Percent Effect; key: Cc1ccc(-n2nnc(CC(=O)N3CCOCC3)c2C)cc1 ; value = -1.18

GET /value?item= CC(C)n1ccnc1CN1CCCN(C(=O)CC2C=CCC2)CC1 (stereo not given) &field=Percent Effect returns 12.6

compound CCc1n[nH]c(C2CN(CCc3cccs3)CCO2)n1 (stereo not given) , Percent Effect observed: -4.38

Input Cc1nc(C2CCCN2CC(=O)N(Cc2ccsc2)C2CC2)no1 (stereo not given) . Output Percent Effect: -3.86

What the record says about O=C1CO[C@@H]2CN(S(=O)(=O)c3ccccc3)C[C@H]2N1CC1CC1 : Percent Effect is 4.02

// field: Percent Effect; key: CCN1CCCn2c(nc(CNC(=O)c3ccsc3)cc2=O)C1 ; value = 7.54

For CCCc1nc(CN2CCOC(CNc3cccnn3)C2)cs1 (stereo not given) the compound record lists Percent Effect as -3.87

The recorded Percent Effect for entry CC(C)OCCCNC(=O)c1ccc(-c2ccco2)[nH]c1=O equals 60.2

Entry Cc1cnn(CC2CN(Cc3cccc(C(=O)N(C)C)c3)CCO2)c1 (stereo not given) , Percent Effect reported as -1.81

Cc1cnn(C2CCCN(C(=O)c3cc(C)sc3C)C2)c1 (stereo not given) has a reported Percent Effect of 4.46

// recorded Percent Effect for Fc1ccc(CN2CCC(c3n[nH]c4nccnc34)CC2)cc1F : 4.38

Entry CN(CC1CCCO1)C1CCN(CCc2ccccn2)CC1 (stereo not given) , Percent Effect reported as -5.1

For record COc1ccc(C(=O)NS(=O)(=O)c2ccc(C#N)cc2C(F)(F)F)cc1 the listed Percent Effect is 20.6

compound Cc1nc(CN(C)C2CCN(CC3CCCCC3)C2)no1 (stereo not given) , Percent Effect observed: -8.63

The reported Percent Effect of the compound CN1[C@H](Cn2cncn2)C[C@@H]2CN(Cc3cccc(C#N)c3)CC[C@@H]21 was -0.719

The compound listed as O=C(NC1CCC1)[C@@H]1C[C@@H]2CCN(Cc3cccs3)C[C@@H]2O1 has a reported Percent Effect of 10.9

The measured Percent Effect associated with CCc1nnsc1C(=O)N1CCCN(Cc2nccn2C)CC1 reads 4.85

Record summary for CCS(=O)(=O)c1ccccc1N1CCC(NC(=O)NC2CCCC2)CC1 : reported Percent Effect = 5.69

Value of Percent Effect reported for the compound Cc1ccc(C(=O)N2CCN(C(=O)Nc3ccccn3)CC2)o1 is 9.04

Form: compound = Cc1nc(CN2CCOC(CNc3cccnn3)C2)oc1C (stereo not given) ; Percent Effect = -22.1

Looking up Cc1nc(CN2CCN(CC(=O)Nc3c(C)cccc3C)CC2)no1 , I found its Percent Effect recorded as -0.791

Percent Effect recorded for this compound, Cc1ccc(N2CCCC(NCc3ccc(C)o3)C2)nn1 (stereo not given) , is 1.51

Measured Percent Effect, CN(C)C(=O)CNC(=O)c1ccc(Cl)cc1F : -0.479

Item: CCOC(=O)C1CCN(Cc2csc(C(C)(C)C)n2)CC1 | Percent Effect: 2.22

Measured Percent Effect, CC(C)n1ccc(-c2cc(C(=O)N3CCCC3)c3ccccn23)n1 : 128

Noted for Cc1ccc(C(O)CNC(=O)NCc2nc(C)cs2)cc1 (stereo not given) : its Percent Effect reads 2.46

// Percent Effect lookup, compound = Cc1cnc2c(S(=O)(=O)NCC3CCN(C4CC4)C3)cccc2c1 (stereo not given) , result: -3.93

For this compound ( CNS(=O)(=O)c1ccc(C(=O)NCCNc2ncccn2)cc1 ), measured Percent Effect is -2.1

Field Percent Effect (entry Cc1nc(CN2CCCC2c2c(C)nn(C)c2Cl)no1 (stereo not given) ) reads -8.02

Form: compound = CCn1cnnc1CNC(=O)N1CCN(c2cccs2)CC1 ; Percent Effect = -16.1

Consider CN1C(=O)CC(c2cnn(C)c2)C12CCN(C(=O)C1CC=CC1)CC2 (stereo not given) . Its measured Percent Effect is 6.7

Form field Percent Effect, entry Cc1nn(C)c(Cl)c1C1CCCN1c1ncnc2sccc12 (stereo not given) : -2.13
